meta.source: patent US20090118274A1

# Experimental System: Recombinant human cathepsin S (CatS) (Homo sapiens, UniProt P25774)
# Construct: made in house
# Sequence (P25774 115-331): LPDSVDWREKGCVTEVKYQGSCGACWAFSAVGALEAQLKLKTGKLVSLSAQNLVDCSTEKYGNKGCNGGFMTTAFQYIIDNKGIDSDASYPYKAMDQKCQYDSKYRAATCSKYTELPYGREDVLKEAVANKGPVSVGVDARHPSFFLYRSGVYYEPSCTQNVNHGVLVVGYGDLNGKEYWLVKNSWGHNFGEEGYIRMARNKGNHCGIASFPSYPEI
# Protocol Summary: Recombinant human cathepsin S (CatS) fluorogenic substrate inhibition assay
# Assay type: biochemical
# Experimental Setup: average of results obtained; substrate Z-Valine-Valine-Arginine-AMC 10 μM, pH 5.0; read-out: CatS IC50
Metric Name: IC50 (µM)

{"columns": ["Compound", "IC50, µM"],
 "data": [
  ["CC(=O)N1CCN(CC(O)Cn2nc(-c3ccc(C(F)(F)F)c(CNC(=O)c4ccc(F)cc4)c3)c3c2CCN(S(C)(=O)=O)C3)CC1 (centres unmarked)", 0.3],
  ["CCOC(=O)NC1CCN(CC(O)Cn2nc(-c3ccc(C(F)(F)F)c(CNC(=O)CC(C)C)c3)c3c2CCN(S(C)(=O)=O)C3)CC1 (centres unmarked)", 0.05],
  ["CC(C)CC(=O)NCc1cc(-c2nn(CC(O)CN3CCC(N(C)C)CC3)c3c2CN(S(C)(=O)=O)CC3)ccc1C(F)(F)F (centres unmarked)", 0.42],
  ["COC1CCC(C(=O)NCc2cc(-c3nn(CC(O)CN4CCCC4)c4c3CN(S(C)(=O)=O)CC4)ccc2C(F)(F)F)CC1 (centres unmarked)", 3.1],
  ["CS(=O)(=O)N1CCc2c(c(-c3ccc(C(F)(F)F)c(CNC(=O)c4ccc(O)cc4)c3)nn2CC(O)CN2CCCC2)C1 (centres unmarked)", 0.26]
]}

(P) CS(=O)(=O)N1CCc2c(c(-c3ccc(Cl)c(CC(=O)Nc4ccc(F)cc4)c3)nn2CCCN2CCOCC2)C1
(Q) CS(=O)(=O)N1CCc2c(c(-c3ccc(Cl)c(CNC(=O)c4ccc(F)cc4)c3)nn2CC(O)CN2CCCC(C(N)=O)C2)C1 (centres unmarked)
(R) CC(C)CC(=O)NCc1cc(-c2nn(CC(O)CN3CCC(O)C3)c3c2CN(S(C)(=O)=O)CC3)ccc1C(F)(F)F (centres unmarked)
Ask | Sort low-to-high on IC50, please. Note for the reader: the ranking is given by listing the labels in the order requested.
Reply | Q, R, P
(Q: 0.17 µM, R: 0.43 µM, P: 1.85 µM)

(a) CS(=O)(=O)N1CCc2c(c(-c3ccc(C(F)(F)F)c(CNC(=O)c4ccc(F)cc4)c3)nn2CC(O)CN2CC[C@@H](CO)C2)C1 (some centres unmarked)
(b) CC(C)N1CCN(CC(O)Cn2nc(-c3ccc(C(F)(F)F)c(CNC(=O)c4ccc(F)cc4)c3)c3c2CCN(S(C)(=O)=O)C3)CC1 (centres unmarked)
Ask | // compare measured IC50 between a and b ; output the lower one Your answer should be the label attached to the chosen record.
Reply | a

###

# Experimental System: Recombinant human cathepsin S (CatS) (Homo sapiens, UniProt P25774)
# Construct: made in house
# Protocol Summary: Recombinant human cathepsin S (CatS) fluorogenic substrate inhibition assay
# Assay type: biochemical
pIC50: −log10 of the molar value.
Metric Name: pIC50

{"columns": ["Compound", "Experimental System", "Metric Name", "Value Measured"],
 "data": [
  ["CN1CCN(CC(O)Cn2nc(-c3ccc(C(F)(F)F)c(CNC(=O)c4ccc(F)cc4)c3)c3c2CCN(S(C)(=O)=O)C3)CC1 (stereo not shown) [Example 227]", "Recombinant human cathepsin S (CatS) (Homo sapiens, UniProt P25774)", "pIC50", 6.12],
  ["CS(=O)(=O)N1CCc2c(c(-c3ccc(C(F)(F)F)c(CNC(=O)c4ccc(F)cc4)c3)nn2CC(O)CN2CCC(C(N)=O)CC2)C1 (stereo not shown) [Example 18]", "Recombinant human cathepsin S (CatS) (Homo sapiens, UniProt P25774)", "pIC50", 7.15],
  ["CS(=O)(=O)N1CCc2c(c(-c3ccc(C(F)(F)F)c(CNC(=O)Oc4ccccc4)c3)nn2CC(O)CN2CCC3(CCNC3=O)CC2)C1 (stereo not shown) [Example 149]", "Recombinant human cathepsin S (CatS) (Homo sapiens, UniProt P25774)", "pIC50", 6.66]
]}

(I) CC(C)CCNCc1cc(-c2nn(CC(O)CN3CCC(NS(C)(=O)=O)CC3)c3c2CN(S(C)(=O)=O)CC3)ccc1C(F)(F)F (stereo not shown) [Example 283]
(II) CC(=O)NCC1CCN(CC(O)Cn2nc(-c3ccc(C(F)(F)F)c(CNC(=O)C=C(C)C)c3)c3c2CCN(S(C)(=O)=O)C3)CC1 (stereo not shown) [Example 267]
(III) CS(=O)(=O)N1CCc2c(c(-c3ccc(Cl)c(CNC(=O)c4ccc(F)cc4)c3)nn2CC(O)CN2CCC2)C1 (stereo not shown) [Example 73]
(IV) CC(C)CC(=O)NCc1cc(-c2nn(CC(O)CN3CCC(N(C)C)C3)c3c2CN(S(C)(=O)=O)CC3)ccc1C(F)(F)F (stereo not shown) [Example 249]
Ask | Sort the 4 compounds by pIC50; largest first, smallest last. Note for the reader: the ranking is given by listing the labels in the order requested.
Reply | II, III, IV, I
(II: 7.10, III: 6.70, IV: 6.35, I: 6.10)
